Target: human mature TGFβ2 (PeproTech) (Homo sapiens, UniProt P61812)
Sequence (P61812 303-414): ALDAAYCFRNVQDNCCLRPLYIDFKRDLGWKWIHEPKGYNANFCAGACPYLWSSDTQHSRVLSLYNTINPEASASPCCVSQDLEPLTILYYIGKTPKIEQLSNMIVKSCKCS
Test: cell-based or functional assay
experimental_endpoint: TGFβ inhibition by HEK-Blue cells (IC50: nM), TGFb2; Blocking: Complete
Unit nM implied. Number only.

Solved cases below.
binder: humanized 4A11 variant 3 (antibody, V domains shown, as the VH of m12 (h4A11.v7): rbt4A11 CDRs and rabbit Vernier residues grafted on human germline IGHV4-59*06; as the VL of m6 (h4A11.v1): rbt4A11 CDRs and rabbit Vernier residues grafted on human germline IGKV4-1*01; human IgG1; also called h4A11.v3; v3; source: Expi293F, transient, purified (Protein A, SEC)) VH: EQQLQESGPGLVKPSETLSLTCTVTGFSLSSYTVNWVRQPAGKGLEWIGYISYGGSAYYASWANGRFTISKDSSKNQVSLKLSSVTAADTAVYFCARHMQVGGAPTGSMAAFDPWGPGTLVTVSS VL: DAVLTQSPDSLAVSLGERATINCQSSQSVYNNNYLSWFQQKPGQPPKLLIYGASTLTSGVPDRFSGSGSGTDFTLTISSLQAEDVAVYYCAGGYSGSSDKYAFGGGTKVEIK
quantitative_readout: 3.9
--
binder: humanized 4A11 variant 4 (antibody, V domains shown, as the VH of m12 (h4A11.v7): rbt4A11 CDRs and rabbit Vernier residues grafted on human germline IGHV4-59*06; as the VL of m7 (h4A11.v2): rbt4A11 CDRs and rabbit Vernier residues grafted on human germline IGKV1D-39*01; human IgG1; also called h4A11.v4; v4; source: Expi293F, transient, purified (Protein A, SEC)) VH: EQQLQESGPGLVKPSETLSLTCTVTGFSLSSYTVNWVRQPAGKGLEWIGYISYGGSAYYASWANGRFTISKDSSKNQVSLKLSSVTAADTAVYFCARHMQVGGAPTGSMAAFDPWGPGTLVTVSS VL: DAQLTQSPSSLSASVGDRVTITCQSSQSVYNNNYLSWFQQKPGKPPKLLIYGASTLTSGVPSRFSGSGSGTDFTLTISSLQPEDFATYYCAGGYSGSSDKYAFGGGTKVEIK
quantitative_readout: 1.9
--
binder: humanized 4A11 variant 7 (antibody, V domains shown, rbt4A11 CDRs (Kabat and Chothia) and rabbit Vernier residues (VH positions 2, 24, 37, 48, 49, 67, 71, 78, 91, 105) grafted on human germline IGHV4-59*06; has S19, S79, K81 (Kabat numbering); rbt4A11 CDRs and rabbit Vernier residues (VL positions 2, 4, 36, 43, 58) grafted on human germline IGKV3-20*01; human IgG1; also called h4A11.v7; v7; source: Expi293F, transient, purified (Protein A, SEC)) VH: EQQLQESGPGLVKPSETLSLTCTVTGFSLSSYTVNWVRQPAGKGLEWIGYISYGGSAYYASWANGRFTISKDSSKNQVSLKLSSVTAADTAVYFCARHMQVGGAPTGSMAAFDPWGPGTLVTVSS VL: EAVLTQSPGTLSLSPGERATLSCQSSQSVYNNNYLSWFQQKPGQPPRLLIYGASTLTSGVPDRFSGSGSGTDFTLTISRLEPEDFAVYYCAGGYSGSSDKYAFGGGTKVEIK
quantitative_readout: 0.9
--
binder: humanized 4A11 variant 8 (antibody, V domains shown, as the VH of m12 (h4A11.v7): rbt4A11 CDRs and rabbit Vernier residues grafted on human germline IGHV4-59*06; as the VL of m11 (h4A11.v6): rbt4A11 CDRs and rabbit Vernier residues grafted on human germline IGKV2-24*01; human IgG1; also called h4A11.v8; v8; source: Expi293F, transient, purified (Protein A, SEC)) VH: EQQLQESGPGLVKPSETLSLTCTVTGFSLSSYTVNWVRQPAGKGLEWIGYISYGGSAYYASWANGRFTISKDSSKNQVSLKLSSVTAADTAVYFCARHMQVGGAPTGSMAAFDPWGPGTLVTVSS VL: DAVLTQTPLSSPVTLGQPASISCQSSQSVYNNNYLSWFQQRPGQPPRLLIYGASTLTSGVPDRFSGSGAGTDFTLKISRVEAEDVGVYYCAGGYSGSSDKYAFGGGTKVEIK
quantitative_readout: 4.8

// next entry
Q. Report measured TGFβ inhibition by HEK-Blue cells (IC50: nM), TGFb2; Blocking: Complete; entry is rabbit monoclonal antibody 4A11 (antibody, V domains shown, VH of rbt4A11; VL of rbt4A11; Parental rabbit antibody; also called rbt4A11) VH: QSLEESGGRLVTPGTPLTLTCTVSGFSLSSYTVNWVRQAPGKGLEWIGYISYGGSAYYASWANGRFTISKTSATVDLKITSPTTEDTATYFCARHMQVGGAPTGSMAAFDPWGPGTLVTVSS VL: AAVLTQTPSPVSAAVGGTVSISCQSSQSVYNNNYLSWFQQKPGQPPKLLIYGASTLTSGVPSRFKGSGSGTQFTLTISDVQCDDAATYYCAGGYSGSSDKYAFGGGTEVVVK
A. 0.9
